assay_system: cysteines in MDA-MB-231 and Ramos cells (Homo sapiens)
protocol: Competitive isoTOP-ABPP in situ (fragment-treated cells)
Format: cell-based
condition_info: 200 μM, insitu, 231
measurement_label: isoTOP-ABPP ratio P61978_C132
Kindly provide the number alone.

Worked examples, 2 molecules total:
I am curious: what isoTOP-ABPP ratio P61978_C132 value has been reported for O=C(CCl)Nc1cccc2ncccc12 ? 1.2

What about Cc1ccc(C=C(C#N)C(=O)NCCN2CCOCC2)cc1 ? 0.9

Others:
I am curious: what isoTOP-ABPP ratio P61978_C132 value has been reported for CC(C)CCOCCNC(=O)CCl ? 0.9

What about O=C(CCl)NC12CC3CC(CC(C3)C1)C2 ? 1.4
